B1: MCOLN1 (parent)
chain: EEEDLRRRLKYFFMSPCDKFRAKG

Variants of: B1
Assay: protein stability index of a GFP-peptide fusion (GPS, HEK-293T) (PSI 1-6); higher = more stable;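 also: lentivirally expressed fusions sorted by FACS into six bins by GFP to DsRed ratio, PSI derived from sequencing read proportions per bin multiplied by bin number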
Conditions: c terminus: a fixed tail appended
Readout Name: protein stability index

Examples with answers:
1) K19H :: 2.65
2) K23Q :: 2.59

Quick one: give me protein stability index for each item below, same order please.
1. A22E
2. P16Y
3. F13C
4. R8C
5. F20T
6. P16S
7. M14Q
8. L5R

Key:
2.18
2.39
3.8
1.86
3.45
2.81
3.04
3.72
